Tested on: Escherichia coli ATCC 25922

{"compound": "CC[C@H](C)[C@H](NC(=O)[C@H](C)NC(=O)[C@H](CCCCN)NC(=O)[C@H](C)NC(=O)[C@H](C)NC(=O)[C@H](CCCCN)NC(=O)CNC(=O)[C@H](Cc1ccccc1)NC(=O)[C@H](C)NC(=O)[C@@H](NC(=O)CNC(=O)[C@H](C)NC(=O)[C@H](CCCCN)NC(=O)[C@@H](NC(=O)[C@H](C)NC(=O)[C@H](CCSC)NC(=O)CN)[C@@H](C)O)[C@@H](C)O)C(=O)N[C@H](C(=O)NCC(=O)N[C@@H](C)C(=O)N[C@@H](C)C(=O)N[C@@H](CC(C)C)C(=O)O)[C@@H](C)CC [GMATKAGTAFGKAAKAIIGAAL]", "MIC": "16 µM"}
